- Test system: NCI-H322M lung
- experiment notes: NCI-60 one-dose screen, 48 h
- measurement conditions: 10 µM unless noted
About 83,000 compounds went through this panel and 20% of them were active in at least one assay; those are over-represented in the sample as a whole. Activity calls are given as the source filed them. Rule for the calls: active = growth percent below 10; inactive = the rest.
Select the matching outcome among y = active, n = inactive

- Nc1nc2ccccc2c2c(=O)c3ccc(Cl)cc3sc12: n
- O=C(CCCCCCCCC(=O)N/N=C\c1ccccc1O)N/N=C\c1ccccc1O: n
- CC(=O)OC[C@]12CCC(C)(C)C=C1[C@H]1CC[C@@H]3[C@@]4(C)CCCNC(C)(C)[C@@H]4CC[C@@]3(C)[C@]1(C)CC2: n

IN: What call does the record list for CC(=O)/C=C/c1ccc(OCc2ccc(Cl)cc2)cc1 ?
OUT: n

IN: Please do the same for COCCOc1cc2ncnc(N3CCN(S(=O)(=O)c4ccccc4Cl)CC3)c2cc1OCCOC as well.
OUT: n

IN: Please do the same for Cc1ccc(S(=O)(=O)Nc2cc(Sc3ccccc3)c(O)c3ccccc23)cc1 as well.
OUT: n

IN: Please do the same for N=C(N)c1ccc(-c2ccc(-c3ccc(Cl)c(Cl)c3)s2)cc1 as well.
OUT: y

IN: Please do the same for Nc1ccc(-c2nc3ccc4[nH]ncc4c3c3c2CCCC3)cc1F as well.
OUT: n
